Reported MLD (minimum lethal dose) values for a set of compounds
System: ddY-strain male mice
Test: Acute Toxicity Test (minimum lethal dose, oral)
Assay type: in vivo
Details: seven days after administration

Some compounds with known MLD (minimum lethal dose) results, for comparison:
Task: What does the data say about its MLD (minimum lethal dose)? Entry: Cn1c(=O)c2c(nc(/C=C/c3ccc4c(c3)OCO4)n2C)n(C)c1=O [Compound 96, (E)-8-(3,4-Methylenedioxystyryl)caffeine]
Output: > 300 mg/kg

Task: Look up MLD (minimum lethal dose) for this compound: CCn1c(=O)c2[nH]c(/C=C/c3ccc(Br)cc3)nc2n(CC)c1=O [Compound 141]
Output: > 100 mg/kg

Task: For CCn1c(=O)c2[nH]c(/C=C/c3cc(F)cc(F)c3)nc2n(CC)c1=O [Compound 155] , what is its reported MLD (minimum lethal dose)?
Output: > 100 mg/kg

Task: Returns the measured MLD (minimum lethal dose) for the input compound. Input: CCCCOc1ccc(/C=C/c2nc3c([nH]2)c(=O)n(CCC)c(=O)n3CCC)cc1 [Compound 52]
Output: > 100 mg/kg

Task: Entry under review: CCn1c(=O)c2c(nc(/C=C/c3ccc(OCCCCN)cc3)n2C)n(CC)c1=O [Compound 188] . Reported MLD (minimum lethal dose)?
Output: > 100 mg/kg

Task: Look up MLD (minimum lethal dose) for this compound: CCn1c(=O)c2c(nc(/C=C/c3cccc(OC(F)(F)F)c3)n2C)n(CC)c1=O [Compound 144]
Output: > 100 mg/kg

Task: Query (compound): CCCn1c(=O)c2[nH]c(/C=C/c3cc(Br)c(OC)c(OC)c3)nc2n(CCC)c1=O [Compound 60] ; field requested: MLD (minimum lethal dose)
Output: > 300 mg/kg

Task: // MLD (minimum lethal dose) lookup, key: CCn1c(=O)c2[nH]c(/C=C/c3ccccc3F)nc2n(CC)c1=O [Compound 167]
Output: > 100 mg/kg

Task: MLD (minimum lethal dose) for CCCn1c(=O)c2[nH]c(/C=C/c3ccc(C)c(C)c3)nc2n(CCC)c1=O [Compound 31] ?
Output: > 100 mg/kg

Task: Dear colleague, I am looking for the recorded MLD (minimum lethal dose) of the following compound: COc1ccc(/C=C/c2nc3c(c(=O)n(C)c(=O)n3C)n2C)cc1Br [Compound 116, (E)-8-(3-Bromo-4-methoxystyryl)caffeine]
Output: > 300 mg/kg

Next:
Task: GET /values?readout=MLD (minimum lethal dose)&item= CCCn1c(=O)c2c(nc(/C=C/c3cc(OC)c(OCc4ccccc4)c(OC)c3)n2C)n(CCC)c1=O [Compound 28]
Output: > 100 mg/kg

Task: Returns the measured MLD (minimum lethal dose) for the input compound. Input: CCn1c(=O)c2[nH]c(/C=C/c3ccc(OC)c(C)c3)nc2n(CC)c1=O [Compound 174]
Output: > 100 mg/kg

Task: For CCn1c(=O)c2[nH]c(/C=C/c3ccccc3OC)nc2n(CC)c1=O [Compound 157] , what is its reported MLD (minimum lethal dose)?
Output: > 100 mg/kg

Task: So what's the measured MLD (minimum lethal dose) for this one? COc1ccc(/C=C/c2nc3c([nH]2)c(=O)n(C)c(=O)n3C)c(Cl)c1OC [Compound 107]
Output: > 100 mg/kg
